target: mRNA-capping enzyme (Homo sapiens); assay: inhibition of human mRNA capping enzyme RNGTT – biochemical, DiFMUP fluorescence, recombinant (AID 406); conditions: DiFMUP phosphatase fluorescence, at 50 µM, stronger effect = higher value
For each entry below, report its inhibition value.
One number for each entry, in %.

// below: answered molecules
O=C(O)c1ccc([O-])cn1.OO.OO.[K+].[K+].[O]=[V]
47
O=C([O-])c1ccccn1.OO.OO.[K+].[K+].[O]=[V]
36
OO.OO.[K+].[O]=[V].c1ccc(-c2ccccn2)nc1
41
CC(=O)c1ccc2c(c1)C1C=CCC1C(C(=O)O)N2 (configuration not stated)
41
O=C1NC(=S)S/C1=C\C=C\c1ccc([N+](=O)[O-])o1
60
O=C(O)c1ccc(O)cn1.OO.[O]=[V]
51
O=C1NC(=S)NC(=O)C1=C/C=C/c1ccco1
22
OO.OO.[K+].[O]=[V].c1cnc2c(c1)ccc1cccnc12
22
c1ccc([C@H]2CN3CCSC3=N2)cc1
29
CC(C)(c1ccc(NS(=O)(=O)C(F)(F)F)cc1)c1ccc(C(C)(C)c2ccc(NS(=O)(=O)C(F)(F)F)cc2)cc1
37

Each of the following entries comes with a recorded value; kindly state inhibition for each.
1. NC1=NC(=O)/C(=C/C=C/c2ccc([N+](=O)[O-])o2)S1
2. CN(N=O)c1ccc(O)c(O)c1

## Output
1: 33; 2: 33
